These entries and their values trace back to patent US11498903B2.

Hi there, I'd appreciate the recorded EC50 for every entry that follows.
Target: human APJ receptor (Homo sapiens)
Construct: expressed in transfected cells
Test: Intracellular cAMP accumulation assay (APJ hcAMP, HTRF)
Assay type: cell-based
Conditions: Table 2; HEK293 cells stably expressing human APJ receptor; read-out: APJ cAMP Human EC50
Description: Intracellular cAMP Accumulation Assay HEK293 cells stably expressing human APJ receptor were used to assess the activity of compounds. Cultured cells were detached and resuspended in the cAMP Homogeneous Time-Resolved Fluorescence (HTRF) assay buffer (Cisbio cat; #62AM4PEJ). The assay was performed in 384-well assay plates (Perkin-Elmer; cat #6008289) according to assay protocol provided by the manufacturer. […] The fluorescence emission ratio was measured using fluorometer. […]

Which measured EC50 belongs to CCC[C@@H](NC(=O)c1ccc(-c2cc(Cl)ccc2-c2nc(C)c(C)[nH]2)c(C(=O)O)c1)c1ccccc1 , tested on human APJ receptor (Homo sapiens)?
10 to 100 nM

Which measured EC50 belongs to CCC[C@@H](NC(=O)c1ccc(-c2cc(OC)ccc2-c2nc3ccccc3[nH]2)c(C(=O)O)c1)c1ccccc1 , tested on human APJ receptor (Homo sapiens)?
< 10 nM

Which measured EC50 belongs to COC[C@@H](NC(=O)c1ccc(-c2ccccc2-c2nc3ccccc3[nH]2)c(C(=O)O)c1)c1ccccc1 , tested on human APJ receptor (Homo sapiens)?
10 to 100 nM

Which measured EC50 belongs to CCC[C@@H](NC(=O)c1ccc(-c2cc(Cl)ccc2-c2nc3cc4ccccc4cc3[nH]2)c(C(=O)O)c1)c1ccccc1 , tested on human APJ receptor (Homo sapiens)?
10 to 100 nM

* * *

target: human APJ receptor (Homo sapiens); construct: expressed in transfected cells; experiment: Intracellular cAMP accumulation assay (APJ hcAMP, HTRF); assay type: cell-based; conditions: Table 1; HEK293 cells stably expressing human APJ receptor; inhibition of forskolin-mediated cAMP production; read-out: APJ hcAMP EC50
pEC50: −log10 of the molar value.
Hi there, I'd appreciate the recorded pEC50 for every entry that follows.

Please give the measured pEC50 for this compound: CCC[C@@H](NC(=O)c1ccc(-c2cccc(F)c2-c2nc3ccccc3[nH]2)c(C(=O)O)c1)c1ccccc1
6.30 to 7.00

Please give the measured pEC50 for this compound: CCC[C@@H](NC(=O)c1ccc(-c2cc(Cl)ccc2-c2nc(C)c(C)[nH]2)c(C(=O)O)c1)c1ccccc1
7.00 to 8.00

Please give the measured pEC50 for this compound: CCC[C@@H](NC(=O)c1ccc(-c2cc(C(F)(F)F)ccc2-c2nc3cc(C(C)(C)C)ccc3[nH]2)c(C(=O)O)c1)c1ccccc1
> 8.00

Please give the measured pEC50 for this compound: CCC[C@@H](NC(=O)c1ccc(-c2cc(C)ccc2-c2nc3cc(C(C)(C)C)ccc3[nH]2)c(C(=O)O)c1)c1ccccc1
> 8.00

Please give the measured pEC50 for this compound: O=C(N[C@H](c1ccc(Cl)cc1)C1CC1)c1ccc(-c2c(Cl)cccc2-c2nc3cc(F)c(Cl)cc3[nH]2)c(C(=O)O)c1 (single isomer, unassigned)
> 8.00

Please give the measured pEC50 for this compound: O=C(N[C@H](CN1CCOCC1)c1ccccc1)c1ccc(-c2cc(Cl)ccc2-c2nc3ccccc3[nH]2)c(C(=O)O)c1
7.00 to 8.00

* * *

Hi there, I'd appreciate the recorded pEC50 for every entry that follows.
target: human APJ receptor (Homo sapiens, UniProt P35414); construct: expressed in transfected cells; assay: Intracellular cAMP accumulation assay (APJ hcAMP, HTRF); type: cell-based; conditions: Table 3; HEK293 cells stably expressing human APJ receptor; read-out: APJ cAMP Human EC50
Sequence (P35414 whole entry): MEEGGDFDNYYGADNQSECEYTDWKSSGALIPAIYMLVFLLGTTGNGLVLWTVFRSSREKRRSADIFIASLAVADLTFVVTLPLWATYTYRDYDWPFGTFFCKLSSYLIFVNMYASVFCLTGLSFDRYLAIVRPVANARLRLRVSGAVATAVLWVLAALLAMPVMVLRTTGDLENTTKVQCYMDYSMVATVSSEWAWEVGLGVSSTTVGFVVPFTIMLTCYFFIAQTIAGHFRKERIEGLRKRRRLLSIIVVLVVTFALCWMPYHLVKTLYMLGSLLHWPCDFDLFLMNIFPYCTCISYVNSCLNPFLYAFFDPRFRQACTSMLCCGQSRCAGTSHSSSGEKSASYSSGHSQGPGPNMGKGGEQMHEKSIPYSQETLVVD
pEC50: −log10 of the molar value.

Please give the measured pEC50 for this molecule: COC[C@@H](NC(=O)c1ccc(-c2c(Cl)cccc2-c2nc3ccccc3[nH]2)c(C(=O)O)c1)c1ccccc1 (atropisomer, axis not shown) [Example 150]
> 8.00

Please give the measured pEC50 for this molecule: CCC[C@@H](NC(=O)c1ccc(-c2c(Cl)cccc2-c2nc3cc(O)ccc3[nH]2)c(C(=O)OC)c1)c1ccccc1 (atropisomer, axis not shown) [Example 128]
7.00 to 8.00

Please give the measured pEC50 for this molecule: CCC[C@@H](NC(=O)c1ccc(-c2c(Cl)cccc2-c2ncc(-c3cccc(OC)c3)[nH]2)c(C(=O)O)c1)c1ccccc1 (atropisomer, axis not shown) [Example 103]
> 8.00

* * *

biological target: human APJ receptor (Homo sapiens); construct: expressed in transfected cells; experiment: Intracellular cAMP accumulation assay (APJ hcAMP, HTRF); format: cell-based; details: Table 2; HEK293 cells stably expressing human APJ receptor; read-out: APJ cAMP Human EC50
Experimental Readout: EC50

Please give the measured EC50 for this compound: COC[C@H](Cc1ccccc1)NC(=O)c1ccc(-c2cc(Cl)ccc2-c2nc3ccccc3[nH]2)c(C(=O)O)c1
101 to 500 nM

Please give the measured EC50 for this compound: CCC[C@@H](NC(=O)c1ccc(-c2cc(C)ccc2-c2nc3ccccc3[nH]2)c(C(=O)O)c1)c1ccccc1
< 10 nM

Please give the measured EC50 for this compound: CCC[C@@H](NC(=O)c1ccc(-c2cc(Cl)ccc2-c2nc3cc(OC)ccc3[nH]2)c(-c2nc(=S)o[nH]2)c1)c1ccccc1
101 to 500 nM

Please give the measured EC50 for this compound: CCC[C@@H](NC(=O)c1ccc(-c2ccc(F)cc2-c2nc3cc(OC)ccc3[nH]2)c(C(=O)O)c1)c1ccccc1
< 10 nM

Please give the measured EC50 for this compound: CCC[C@@H](NC(=O)c1ccc(-c2ccc(Cl)cc2-c2nc3cc(OC)ccc3[nH]2)c(C(=O)O)c1)c1ccccc1
< 10 nM

Please give the measured EC50 for this compound: CCC[C@@H](NC(=O)c1ccc(-c2cc(Cl)ccc2-c2nc3cc(C(=O)OC)ccc3[nH]2)c(C(=O)O)c1)c1ccccc1
< 10 nM

Please give the measured EC50 for this compound: CCC[C@@H](NC(=O)c1ccc(-c2cc(Cl)ccc2-c2nc3ccncc3[nH]2)c(C(=O)O)c1)c1ccccc1
10 to 100 nM

Please give the measured EC50 for this compound: CCC[C@@H](NC(=O)c1ccc(-c2ccc(Cl)cc2-c2nc3ccccc3[nH]2)c(C(=O)O)c1)c1ccccc1
10 to 100 nM

Please give the measured EC50 for this compound: CCC[C@@H](NC(=O)c1ccc(-c2cccc(F)c2-c2nc3ccccc3[nH]2)c(C(=O)O)c1)c1ccccc1
101 to 500 nM

Please give the measured EC50 for this compound: C[C@@H](NC(=O)c1ccc(-c2cc(Cl)ccc2-c2nc3ccccc3[nH]2)c(C(=O)O)c1)c1ccccc1
10 to 100 nM

Please give the measured EC50 for this compound: CCC[C@@H](NC(=O)c1ccc(-c2cc(Cl)ccc2-c2nc3ccccc3[nH]2)c(C(=O)NOC)c1)c1ccccc1
10 to 100 nM

Please give the measured EC50 for this compound: CCC[C@@H](NC(=O)c1ccc(-c2cc(Cl)ccc2-c2nc3ccccc3[nH]2)c(C(=O)O)c1)c1ccccc1
< 10 nM

Please give the measured EC50 for this compound: CCC[C@@H](NC(=O)c1ccc(-c2cc(Cl)ccc2-c2nc3ccccc3[nH]2)c(C(=O)NS(C)(=O)=O)c1)c1ccccc1
10 to 100 nM

Please give the measured EC50 for this compound: CCC[C@@H](NC(=O)c1ccc(-c2ccc(Cl)cc2-c2nc3cc(C(C)(C)C)ccc3[nH]2)c(C(=O)O)c1)c1ccccc1
10 to 100 nM

* * *

Biological target: human APJ receptor (Homo sapiens, UniProt P35414)
Construct: expressed in transfected cells
Experiment: Intracellular cAMP accumulation assay (APJ hcAMP, HTRF)
Format: cell-based
Settings: human APJ, cAMP; potency range class; read-out: APJ cAMP Human EC50
Description: Intracellular cAMP Accumulation Assay HEK293 cells stably expressing human APJ receptor were used to assess the activity of compounds. Cultured cells were detached and resuspended in the cAMP Homogeneous Time-Resolved Fluorescence (HTRF) assay buffer (Cisbio cat; #62AM4PEJ). The assay was performed in 384-well assay plates (Perkin-Elmer; cat #6008289) according to assay protocol provided by the manufacturer. […] The fluorescence emission ratio was measured using fluorometer. […]
pEC50: −log10 of the molar value.
Hi there, I'd appreciate the recorded pEC50 for every entry that follows.

Please give the measured pEC50 for this compound: CC(C)(C)CC(NC(=O)c1ccc(-c2cc(Cl)ccc2-c2nc3ccccc3[nH]2)c(C(=O)O)c1)c1ccccc1 (racemic)
7.00 to 8.00

Please give the measured pEC50 for this compound: CCCC(NC(=O)c1ccc(-c2c(Cl)cccc2-c2nc3cc(OC)c(F)cc3[nH]2)c(C(=O)O)c1)c1ccc(Cl)cc1OC (single isomer, unassigned)
> 8.00

Please give the measured pEC50 for this compound: CCCC(NC(=O)c1ccc(-c2c(Cl)cccc2-c2nc3ccccc3[nH]2)c(C(=O)O)c1)c1ccc(F)cc1OC (single isomer, unassigned)
> 8.00

Please give the measured pEC50 for this compound: CCC[C@H](NC(=O)c1ccc(-c2c(Cl)cccc2-c2nc3cc(F)c(Cl)cc3[nH]2)c(C(=O)O)c1)c1ccc(Cl)cc1 (single isomer, unassigned)
> 8.00

Please give the measured pEC50 for this compound: O=C(NC(C1CCCCC1)C1CC1)c1ccc(-c2c(Cl)cccc2-c2nc3ccccc3[nH]2)c(C(=O)O)c1 (single isomer, unassigned)
> 8.00

Please give the measured pEC50 for this compound: COc1cc2nc(-c3cccc(Cl)c3-c3ccc(C(=O)N[C@H](c4ccccc4)C4CC4)cc3C(=O)O)[nH]c2cc1F (single isomer, unassigned)
> 8.00

Please give the measured pEC50 for this compound: CCCC(NC(=O)c1ccc(-c2c(Cl)cccc2-c2nc3cc(OC)c(F)cc3[nH]2)c(C(=O)O)c1)C1CCCCC1 (single isomer, unassigned)
> 8.00

Please give the measured pEC50 for this compound: CCCC(NC(=O)c1ccc(-c2c(Cl)cccc2-c2nc3ccccc3[nH]2)c(C(=O)O)c1)c1ccccc1C(F)(F)F (single isomer, unassigned)
7.00 to 8.00

Please give the measured pEC50 for this compound: CCCC(NC(=O)c1ccc(-c2c(Cl)cccc2-c2nc3ccccc3[nH]2)c(C(=O)O)c1)c1ccc(Cl)cc1OC (centres unmarked) [Example 179]
> 8.00

Please give the measured pEC50 for this compound: O=C(NC(c1ccc(Cl)cc1)C1CC1)c1ccc(-c2c(Cl)cccc2-c2nc3ccccc3[nH]2)c(C(=O)O)c1 (single isomer, unassigned)
> 8.00

Please give the measured pEC50 for this compound: CCCC(NC(=O)c1ccc(-c2c(Cl)cccc2-c2nc3ccccc3[nH]2)c(C(=O)O)c1)c1ccccn1 (single isomer, unassigned) [Example 175]
> 8.00
